organism: Homo sapiens; assay: Displacement of F-NEO from human mitochondrial rRNA-A site A1490G mutant after 10 to 20 mins by fluorescence assay relative to NEO

smiles_string	inhibition
NC[C@@H]1O[C@H](O[C@H]2[C@@H](O)[C@H](O[C@@H]3[C@@H](O)[C@H](N)C[C@H](N)[C@H]3O[C@H]3O[C@H](CN)[C@@H](O)[C@H](O)[C@H]3N)O[C@@H]2CSCCNC(=O)Cc2ccc3ccc4cccc5ccc2c3c45)[C@H](N)[C@@H](O)[C@@H]1O	102%
NC[C@@H]1O[C@H](O[C@H]2[C@@H](O)[C@H](O[C@@H]3[C@@H](O)[C@H](N)C[C@H](N)[C@H]3O[C@H]3O[C@H](CN)[C@@H](O)[C@H](O)[C@H]3N)O[C@@H]2CNC(=O)CCc2ccc3ccc4cccc5ccc2c3c45)[C@H](N)[C@@H](O)[C@@H]1O	22%
NC[C@@H]1O[C@H](O[C@H]2[C@@H](O)[C@H](O[C@@H]3[C@@H](O)[C@H](N)C[C@H](N)[C@H]3O[C@H]3O[C@H](CN)[C@@H](O)[C@H](O)[C@H]3N)O[C@@H]2CSCCNC(=O)CCc2ccc3ccc4cccc5ccc2c3c45)[C@H](N)[C@@H](O)[C@@H]1O	65%
NC[C@@H]1O[C@H](O[C@H]2[C@@H](O)[C@H](O[C@@H]3[C@@H](O)[C@H](N)C[C@H](N)[C@H]3O[C@H]3O[C@H](CN)[C@@H](O)[C@H](O)[C@H]3N)O[C@@H]2CNC(=O)Cc2ccc3ccc4cccc5ccc2c3c45)[C@H](N)[C@@H](O)[C@@H]1O	22%
NC[C@@H]1O[C@H](O[C@H]2[C@@H](O)[C@H](O[C@@H]3[C@@H](O)[C@H](N)C[C@H](N)[C@H]3O[C@H]3O[C@H](CN)[C@@H](O)[C@H](O)[C@H]3N)O[C@@H]2CSCCNC(=S)NCCCCCCNC(=O)CCCc2ccc3ccc4cccc5ccc2c3c45)[C@H](N)[C@@H](O)[C@@H]1O	58%
NC[C@@H]1O[C@H](O[C@H]2[C@@H](O)[C@H](O[C@@H]3[C@@H](O)[C@H](N)C[C@H](N)[C@H]3O[C@H]3O[C@H](CN)[C@@H](O)[C@H](O)[C@H]3N)O[C@@H]2CNC(=O)CCCc2ccc3ccc4cccc5ccc2c3c45)[C@H](N)[C@@H](O)[C@@H]1O	88%
NC[C@@H]1O[C@H](O[C@H]2[C@@H](O)[C@H](O[C@@H]3[C@@H](O)[C@H](N)C[C@H](N)[C@H]3O[C@H]3O[C@H](CN)[C@@H](O)[C@H](O)[C@H]3N)O[C@@H]2CSCCNC(=O)CCCc2ccc3ccc4cccc5ccc2c3c45)[C@H](N)[C@@H](O)[C@@H]1O	58%

###

system: Staphylococcus epidermidis; assay: Antibacterial activity against NEO-sensitive Staphylococcus epidermidis 12384 at 6.25 uM after 15 to 20 hrs by CLSI protocol based microdilution assay relative to control; type: functional

smiles_string	target_of_assay	Activity
NC[C@@H]1O[C@H](O[C@H]2[C@@H](O)[C@H](O[C@@H]3[C@@H](O)[C@H](N)C[C@H](N)[C@H]3O[C@H]3O[C@H](CN)[C@@H](O)[C@H](O)[C@H]3N)O[C@@H]2CSCCNC(=S)NCCCCCCNC(=O)CCCc2ccc3ccc4cccc5ccc2c3c45)[C@H](N)[C@@H](O)[C@@H]1O	Staphylococcus epidermidis	80%
NC[C@@H]1O[C@H](O[C@H]2[C@@H](O)[C@H](O[C@@H]3[C@@H](O)[C@H](N)C[C@H](N)[C@H]3O[C@H]3O[C@H](CN)[C@@H](O)[C@H](O)[C@H]3N)O[C@@H]2CNC(=O)Cc2ccc3ccc4cccc5ccc2c3c45)[C@H](N)[C@@H](O)[C@@H]1O	Staphylococcus epidermidis	15%
